Test: A CellTox Green Cytotoxicity Assay to monitor cytotoxicity in HepG2 cells - 8 hour (AID 1224890); note: nearly all actives have a fitted effect of over 45% in size
Conditions: CellTox Green fluorescence; series mostly up to 76.8 µM
Description: National Center for Advancing Translational Sciences [NCATS] NIH Chemical Genomics Center [NCGC] U.S. Environmental Protection Agency [EPA] National Institutes of Environmental Health Sciences [NIEHS] National Toxicology Program [NTP] Cell-based models are critical for drug discovery. […] Viable cells produce no appreciable increases in fluorescence. Therefore, the fluorescence signal produced by the binding interaction with dead cell DNA is proportional to cytotoxicity. […]
Records with an inconclusive call do not appear. Active and inactive are the calls of the source. Calls come from the whole dose curve; as a rule, active = well fitted activation curve with a large enough effect in the repeat runs; inconclusive = weak or mixed curves; inactive = flat fitted curve, though single readings scatter.
quantity: cytotoxicity increase

| smiles | quantity | readout-value |
| --- | --- | --- |
| C[C@]12CCC(=O)C=C1CC[C@@H]1[C@@H]2CC[C@@]2(C)[C@H]1CC[C@]2(O)C(=O)CO | cytotoxicity increase | inactive |
| O=C(C(Cl)Cl)N1CCOC12CCCCC2 | cytotoxicity increase | inactive |
| CCCCC(=O)O[C@]1(C(=O)CO)[C@H](C)C[C@H]2[C@@H]3CCC4=CC(=O)C=C[C@]4(C)[C@@]3(F)[C@@H](O)C[C@@]21C | cytotoxicity increase | inactive |
| CC(C)(CO)[C@@H](O)C(=O)NCCC(=O)O | cytotoxicity increase | inactive |
| O=C(O)[C@@H]1CSCN1 | cytotoxicity increase | inactive |
| CC(C)c1ccccc1 | cytotoxicity increase | inactive |
| N#Cc1ccc(C(c2ccc(C#N)cc2)n2cncn2)cc1 | cytotoxicity increase | inactive |
| NC(=O)Cc1cccc(C(=O)c2ccccc2)c1N | cytotoxicity increase | inactive |
| O=C(CC(=O)C(F)(F)F)c1ccccc1 | cytotoxicity increase | inactive |
| CCN(CC)CCNC(=O)COc1ccc(Cl)cc1 | cytotoxicity increase | inactive |
| COc1ccc2nc(NC(=O)Nc3ccccc3)sc2c1 | cytotoxicity increase | inactive |
| CCCCN1C[C@H](O)[C@@H](O)[C@H](O)[C@H]1CO | cytotoxicity increase | inactive |

Attribution: PubChem BioAssay (Tox21)
